- Target entity: UniProtKB Q9NWZ3
- Method description: PBMC degradation assay (western blot, % IRAK4 degraded after 4 hours)
- Format: cell-based
- Particulars: human PBMCs
Endpoint name: PBMC % IRAK4 Degradation

- Compound: "O=C1CCC(N2C(=O)c3cccc(NCCOCCOCCNCc4ccc(-n5cc(NC(=O)c6coc(-c7ccnc(NCC8CC8)c7)n6)c(C(F)(F)F)n5)cc4)c3C2=O)C(=O)N1 (stereo not drawn)"
  Endpoint name: "PBMC % IRAK4 Degradation"
  Recorded result: "A (>50% degradation)"
- Compound: "NC(=O)c1nn(-c2ccc(C(=O)NCCOCCCCCOCCNC(=O)COc3cccc4c3C(=O)N(C3CCC(=O)NC3=O)C4=O)cc2)cc1NC(=O)c1coc(-c2ccnc(NCC(F)(F)F)c2)n1 (stereo not drawn)"
  Endpoint name: "PBMC % IRAK4 Degradation"
  Recorded result: "A (>50% degradation)"

----------
- Method description: Pharmacokinetics in CD-1 mice (plasma concentrations, PK parameters)
- Assay type: in vivo
- Particulars: CD-1, mouse, plasma, sc, 30 mg/kg, mouse (CD1) sc 30 mg/kg; individual M07-M09; read-out: AUC0-inf

- Molecule: "NC(=O)c1nn(-c2ccc(C(=O)NCCOCCOCCNc3cccc4c3C(=O)N(C3CCC(=O)NC3=O)C4=O)cc2)cc1NC(=O)c1coc(-c2ccnc(NCC(F)(F)F)c2)n1 (stereo not shown)"
  AUC(0-inf): "144 ng·h/mL"

----------
- Method description: Pharmacokinetics in Sprague Dawley rats (plasma and brain concentrations, PK parameters)
- Format: in vivo
- Particulars: Sprague Dawley, rat, plasma, po, 10 mg/kg, Sprague Dawley rat, po 10 mg/kg, plasma, 1 h, Rat 4; read-out: Concentration Rat 4

- Molecule: "O=C1CCC(N2C(=O)c3cccc(NCCOCCOCCNCc4ccc(-n5cc(NC(=O)c6coc(-c7ccnc(NCC8CC8)c7)n6)c(C(F)F)n5)cc4)c3C2=O)C(=O)N1 (stereo not shown)"
  Units text: "ng/mL"
  concentration at 1 h: 1.39

----------
- Method description: Pharmacokinetics in CD-1 mice (plasma concentrations, PK parameters)
- Format: in vivo
- Particulars: mouse (CD1) po 30 mg/kg; Mean
Endpoint name: AUClast/D (h·ng/mL per mg/kg)

- Molecule: "O=C1CCC(N2C(=O)c3cccc(NCCOCCOCCNCc4ccc(-n5cc(NC(=O)c6coc(-c7ccnc(NCC8CC8)c7)n6)c(C(F)F)n5)cc4)c3C2=O)C(=O)N1 (stereo not shown) [I-210]"
  Endpoint name: "AUClast/D"
  Units text: "h·ng/mL per mg/kg"
  Recorded result: 22.5

----------
- Method description: Pharmacokinetics in CD-1 mice (plasma concentrations, PK parameters)
- Format: in vivo
- Particulars: CD-1, mouse, plasma, po, 30 mg/kg, mouse (CD1) po 30 mg/kg; individual Mouse 4-6; read-out: MRTInf_obs
- Procedure: Pharmacokinetics for I-127, I-172 and I-210 were determined in Sprague Dawley rats or CD-1 mice by dosing intravenous (IV), subcutaneous (SC) or per oral (PO) using facility SOPs and sampling plasma at required time points. […] Compounds were extracted from plasma, injected on reverse phase HPLC, eluted with a gradient from 5% to 95% acetonitrile in water and quantified by mass spectrometry with internal standard. […]
Endpoint name: MRT inf

- Compound: "O=C1CCC(N2C(=O)c3cccc(NCCOCCOCCNCc4ccc(-n5cc(NC(=O)c6coc(-c7ccnc(NCC8CC8)c7)n6)c(C(F)F)n5)cc4)c3C2=O)C(=O)N1 (stereo not shown)"
  Endpoint name: "MRT inf"
  Recorded result: "4.22 h"

----------
- Target entity: IRAK4 (Homo sapiens, UniProt Q9NWZ3)
- Sequence (Q9NWZ3 1-460): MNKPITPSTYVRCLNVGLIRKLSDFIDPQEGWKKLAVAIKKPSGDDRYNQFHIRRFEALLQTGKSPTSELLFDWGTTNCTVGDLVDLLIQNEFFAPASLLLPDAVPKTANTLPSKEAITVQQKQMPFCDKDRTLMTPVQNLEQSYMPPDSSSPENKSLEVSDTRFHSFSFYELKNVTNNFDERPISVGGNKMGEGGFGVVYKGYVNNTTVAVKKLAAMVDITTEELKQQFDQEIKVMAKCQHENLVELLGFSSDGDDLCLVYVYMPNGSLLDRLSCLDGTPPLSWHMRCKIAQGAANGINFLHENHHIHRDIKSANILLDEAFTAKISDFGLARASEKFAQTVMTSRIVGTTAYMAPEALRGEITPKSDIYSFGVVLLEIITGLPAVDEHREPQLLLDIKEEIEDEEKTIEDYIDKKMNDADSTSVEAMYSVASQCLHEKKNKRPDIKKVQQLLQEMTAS
- Method description: OCI-LY-10 MSD assay for IRAK4 DC50
- Type: cell-based
- Set-up: endogenous in cells; host or cells: OCI-LY10
- Particulars: OCI-LY10 cells, 4 hr incubation, concentration required to degrade 50% of protein
The reader will find reported DC50 values listed item by item below.

- Compound: "O=C1CCC(n2c(=O)n(CCOCCOCCNCc3ccc(-n4cc(NC(=O)c5coc(-c6ccnc(NCC7CC7)c6)n5)c(C(F)F)n4)cc3)c3ccccc32)C(=O)N1 (centres unmarked) [I-552]"
  DC50: "< 50 nM"
- Compound: "Cn1c(=O)n(C2CCC(=O)NC2=O)c2cccc(CCCOCCOCCOCCOCC(=O)N[C@H]3CC[C@H](Nc4ncnc5[nH]cc(C6CCOCC6)c45)CC3)c21 (some centres unmarked) [I-440]"
  DC50: "> 1000 nM"
- Compound: "CN(CCOCCCc1cccc2c1C(=O)N(C1CCC(=O)NC1=O)C2=O)Cc1ccc(-n2cc(NC(=O)c3coc(-c4ccnc(NCC5CC5)c4)n3)c(C(N)=O)n2)cc1 (centres unmarked) [I-313]"
  DC50: "< 50 nM"
- Compound: "CN[C@@H](C)C(=O)N[C@H](C(=O)N1CCC[C@H]1c1nc(C(=O)c2cccc(OCCOCCOCCOCCOCCOCCNCc3ccc(-n4cc(NC(=O)c5coc(-c6ccnc(NCC7CC7)c6)n5)c(C(F)F)n4)cc3)c2)cs1)C1CCCCC1 [I-553]"
  DC50: "500 to 1000 nM"
- Compound: "CN(C[C@@H]1CN(CCCc2ccc3c(c2)n(C)c(=O)n3C2CCC(=O)NC2=O)CCO1)C(=O)c1ccc(-n2cc(NC(=O)c3coc(-c4ccnc(NCC5CC5)c4)n3)c(C(F)F)n2)cc1 (some centres unmarked) [I-488]"
  DC50: "< 50 nM"

----------
- Target entity: IRAK4 (Homo sapiens, UniProt Q9NWZ3)
- Method description: OCI-LY-10 MSD assay for IRAK4 DC50
- Type: cell-based
- Parameters: endogenous in cells; host or cells: OCI-LY10
- Particulars: OCI-LY10 cells, 4 hr incubation, concentration required to degrade 50% of protein
The reader will find reported DC50 values listed item by item below.

- Compound: "Cn1cc(NC(=O)c2coc(-c3ccnc(NCC(F)(F)F)c3)n2)c(-c2cncc(C(=O)NCCOCCOCCCc3cccc4c3n(C)c(=O)n4C3CCC(=O)NC3=O)c2)n1 (stereo not drawn)"
  DC50: "> 1 µM"
- Compound: "COCC(=O)N[C@H](C(=O)N1Cc2cc(OCCOCCOCCOCCOCCOCCNCc3ccc(-n4cc(NC(=O)c5coc(-c6ccnc(NCC7CC7)c6)n5)c(C(F)F)n4)cc3)ccc2CC1C(=O)N[C@@H]1CCCc2ccccc21)C(C)(C)C (stereo partly drawn)"
  DC50: "> 1 µM"
- Compound: "NC(=O)c1nn(-c2ccc(C(=O)NCCOCCOCCOCCOCCCc3cccc4c3C(=O)N(C3CCC(=O)NC3=O)C4=O)cc2)cc1NC(=O)c1coc(-c2ccnc(NCC(F)(F)F)c2)n1 (stereo not drawn)"
  DC50: "0.05 to 0.1 µM"

----------
- Method description: Pharmacokinetics in CD-1 mice (plasma concentrations, PK parameters)
- Assay type: in vivo
- Particulars: CD-1, mouse, plasma, iv, 2 mg/kg, mouse (CD1) iv 2 mg/kg; 6.00 h; Mean IV; read-out: concentrations
Endpoint name: concentration at 6 h (ng/mL)

- Compound: "NC(=O)c1nn(-c2ccc(C(=O)NCCOCCOCCNc3cccc4c3C(=O)N(C3CCC(=O)NC3=O)C4=O)cc2)cc1NC(=O)c1coc(-c2ccnc(NCC(F)(F)F)c2)n1 (stereo not shown)"
  Endpoint name: "concentration at 6 h"
  Recorded result: 5.31

----------
- Method description: Pharmacokinetics in CD-1 mice (plasma concentrations, PK parameters)
- Assay type: in vivo
- Particulars: CD-1, mouse, plasma, po, 30 mg/kg, mouse (CD1) po 30 mg/kg; 1 h; Mean; read-out: Concentration

- Compound: "O=C1CCC(N2C(=O)c3cccc(NCCOCCOCCNCc4ccc(-n5cc(NC(=O)c6coc(-c7ccnc(NCC8CC8)c7)n6)c(C(F)F)n5)cc4)c3C2=O)C(=O)N1 (stereo not shown) [I-210]"
  concentration at 1 h, ng/mL: 72

The values you see were collected from patent US10874743B2.
